Reported GI50 values follow for various compounds
# Tested on: NCI-H460 lung
# ASSAY_TEXT: NCI tumour cell line growth inhibition, 48 h

COMPOUND	GI50
Cc1cc(C)c(Cn2cnc3c(Cl)ncnc32)c(C)c1CCl	32.7 µM
Cc1cc(CC(C)CC(C)(C)C)n(O)c(=O)c1 (stereo not given) (tested in a mixture with another compound)	0.331 µM
COc1cccc(NC(=O)c2sc3nc4c(cc3c2N)C(=O)CCC4)c1	0.0953 µM
CNC(=O)Cc1nc(-c2cccc(NS(=O)(=O)c3c(F)cccc3F)c2F)c(-c2ccnc(Nc3ccccc3)n2)s1	14.8 µM
O=C(/C=C/c1ccccc1)n1c(-c2ccc(Cl)cc2)nc2ccccc21	1.53 µM
CCN(CC)CCCNC(=O)c1c2c(n3ccccc13)C(=O)c1ncccc1C2=O	0.225 µM
CC(C)(C)CC(C)(C)NCc1cc(C(C)(C)C)cc(CNC(C)(C)CC(C)(C)C)c1O	3.49 µM
COC(=O)c1cc(O)c2c(c1C(=O)OC)C[C@H]1[C@@H]3CC=C4C[C@@H](O)CC[C@]4(C)[C@H]3CC[C@]21C	3.24 µM
CC(C)(C)[Si](C)(C)OC1[C@@H](O[Si](C)(C)C(C)(C)C)[C@@H](CNC(=O)NC(=O)CCl)O[C@H]1n1cnc2c(NC(=O)Nc3ccccc3)ncnc21 (stereo not given in full)	0.859 µM
COc1cc(CNc2ccccc2C(=O)N2CCN(C(=O)c3cc(-c4cc(OC)c(OC)c(OC)c4)n4nc(-c5ccccc5)cc4n3)CC2)cc(OC)c1OC	3.32 µM
Cc1ccc(N(CC(=O)Nc2ccc(S(=O)(=O)N3CCC(N4CCCC4)CC3)cc2)S(=O)(=O)c2ccc(Cl)cc2)cc1	1.75 µM
O=Cc1ccc(-c2ccc(-c3nc4ccccc4o3)cc2)o1	39.6 µM
N#CCN/C=C\C(=O)c1ccc(Cl)cc1	42.1 µM
CN1C(=O)N[C@H]2[C@@H]3NC(=O)c4ccc(Br)n4[C@@H]3C[C@]21O	0.0403 µM
Cc1nc(N2CCC3(CC2)CO[C@@H](C)[C@H]3N)c(CO)nc1Sc1ccnc(N)c1Cl	> 100 µM

====

Measured log10 TGI, listed per entry.
# System: HOP-92 NSCLC
# ASSAY_TEXT: NCI tumour cell line growth inhibition, 48 h
QUANTITY_NAME: log10 TGI (log10 of the value in µM)

COMPOUND	log10 TGI
Cc1csc(/N=C\c2c(O)c3ccccc3oc2=O)n1	1.95
CCCCCCCCCCCCCCCCOC[C@@H](COC(c1ccccc1)(c1ccccc1)c1ccccc1)O[P+](=S)OC (some centres undefined)	1.42
Cn1c2ccc(Br)cc2c2c3c(c4c5ccccc5[nH]c4c21)C(=O)N(O)C3=O	-0.35
CN(C)c1nc(=Nc2cccc(Cl)c2)ss1	1.69
C=C1CCC2C(C)(COC(=O)CC)C(OC(=O)CC)CCC2(C)C1C/C=C1/C(=O)OCC1OC(=O)CC (centres undefined)	0.85
O=c1c(Cl)c(Cl)c(=O)c2sc3cc(Cl)ccc3[nH]c1=2	1.52
CC1C2(C)OC(=N)C(C#N)(C(c3cccc([N+](=O)[O-])c3)O2)C1(C#N)C#N (centres undefined)	1.52
O=C(Nc1ccc(-n2ccc3c(NC(=O)c4ccccc4)ncnc32)cc1)Nc1cccc(Cl)c1Cl	0.39
CC[C@H]1C=CCC[C@@]2(C[C@@H]3CC[C@H]4[C@@H](C(=O)OCCCCCCCCCCCCCCCC(=O)N(CCCN)C[C@@H](O)CCN)[C@@]5(CCC[C@@H](C)O5)NC(=[N+]34)N2)O1	0.61
COC(=O)N1CC2C3C4CC(C(c5ccccc5)=C4c4ccccc4)C3C21 (centres undefined)	1.39
CC(C)=CCC/C(C)=C/CC/C(C)=C/CC/C(=C/CC/C(C)=C\CC/C(C)=C/CC/C(C)=C/CC/C(C)=C/Cc1cc(O)ccc1O)CO	1.50

Recorded values, source PubChem BioAssay (NCI).
